Source: paper PMC4383725

TARGET: oxysterol-binding protein (OSBP) (Homo sapiens)
Sequence (P22059 2-807): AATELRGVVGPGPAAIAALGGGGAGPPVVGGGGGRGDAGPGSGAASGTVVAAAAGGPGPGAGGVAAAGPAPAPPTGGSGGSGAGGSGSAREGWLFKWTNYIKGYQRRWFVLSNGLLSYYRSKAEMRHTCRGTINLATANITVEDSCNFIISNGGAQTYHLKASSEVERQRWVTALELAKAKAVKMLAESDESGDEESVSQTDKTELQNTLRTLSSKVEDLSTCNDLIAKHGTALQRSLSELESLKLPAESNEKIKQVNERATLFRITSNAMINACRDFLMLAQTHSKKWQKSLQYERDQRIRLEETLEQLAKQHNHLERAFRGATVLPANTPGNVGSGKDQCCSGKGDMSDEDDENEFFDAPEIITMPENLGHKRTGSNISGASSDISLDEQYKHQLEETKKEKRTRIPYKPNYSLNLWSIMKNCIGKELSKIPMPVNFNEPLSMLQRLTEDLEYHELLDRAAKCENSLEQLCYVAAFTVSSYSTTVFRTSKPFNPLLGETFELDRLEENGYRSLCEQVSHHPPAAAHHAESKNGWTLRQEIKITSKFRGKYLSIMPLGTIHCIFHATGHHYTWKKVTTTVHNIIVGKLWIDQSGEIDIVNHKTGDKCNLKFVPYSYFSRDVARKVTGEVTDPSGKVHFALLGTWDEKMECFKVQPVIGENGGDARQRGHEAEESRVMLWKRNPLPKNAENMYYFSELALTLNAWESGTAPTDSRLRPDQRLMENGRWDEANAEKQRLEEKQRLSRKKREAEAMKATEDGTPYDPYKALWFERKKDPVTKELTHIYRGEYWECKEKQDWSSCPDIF
pKd: −log10 of the molar value.
MEASUREMENT_TYPE: pKd

CCC(C)n1ncn(-c2ccc(N3CCN(c4ccc(OCC5COC(Cn6cncn6)(c6ccc(Cl)cc6Cl)O5)cc4)CC3)cc2)c1=O (stereo not shown) has a reported pKd of ~6.37
